Tested on: 786-0 renal
Assay: NCI tumour cell line growth inhibition, 48 h
reported.metric: TGI

CN(C)CCNc1nc2c(no[n+]2[O-])c2ccccc12; 99 µM
N#Cc1c2c(c(-c3cccs3)n(C3OC(CO)C(O)C(O)C3O)c1=S)CCc1ccccc1-2 (stereo not given); > 100 µM
CC(=O)n1ccc2c(Cl)ncnc21; > 100 µM
COc1ccccc1NS(=O)(=O)c1ccc2ncn(NS(=O)(=O)c3ccc(Cl)cc3)c(=O)c2c1; > 100 µM

Name the recorded TGI for `COC(=O)Cc1nc2ccccc2o1` .
> 100 µM

Name the recorded TGI for `C=CCCC(=O)N1C=CC(=O)[C@H](O)[C@@H]1/C=C/c1ccccc1` .
> 32.5 µM

---

List of log10(TGI) values.
Test system: NCI/ADR-RES ovarian
Test: NCI tumour cell line growth inhibition, 48 h
Field: value | Transform: log10 | Quantity: TGI | Unit: µM

Solved entries:
C=CC(Br)(CBr)CCC(Br)C(C)C (stereo not given); 1.53
O=c1c2c3c(sc2n2c(-c4ccc(Br)cc4)nnc2n1Cc1ccccc1)CCCC3; 1.56
CN(C)CCNc1nc2c(no[n+]2[O-])c2ccccc12; 1.77

Name the recorded log10(TGI) for O=P1(c2ccccc2)C2=CCC=CC2C(c2ccccc2)N1Cc1ccccc1 (stereo not given) .
1.51

---

System: M19-MEL melanoma
Experiment: NCI tumour cell line growth inhibition, 48 h
reported.metric: TGI

COc1ccc(C2C(Cl)C(=O)N2NC(=O)Cc2ccccc2)cc1OC (stereo not given); > 100 µM
NS(=O)(=O)c1ccc(NC(=O)COC(=O)c2cccc3c(=O)c4ccccc4[nH]c23)cc1; > 100 µM
COc1ccc(/C=N/Nc2nc(C)c3c(n2)Nc2ccccc2NC3=O)cc1; > 100 µM
O=C1NC2(C=Cc3c(ccc4ccccc34)O2)Oc2ccccc21 (stereo not given); > 100 µM

Shifting focus to the compound that follows.
Name the recorded TGI for `CC1=C(C(=O)Nc2ccccc2)C(c2ccc(C(C)C)cc2)C(C(=O)Nc2ccccc2)=C(C)N1` .
35.6 µM

---

Tested on: SF-295 CNS
Assay: NCI tumour cell line growth inhibition, 48 h
List of TGI values.

COc1cc(/C=N\O)nc(-c2ccccn2)c1; > 100 µM
COc1cccc(C2=C(c3cn(C)c4cccc(OC)c34)C(=O)NC2=O)c1; > 25 µM
COc1ccc(NC(=O)/C=C(C)/C=C/C=C(C)\C=C\C2=C(C)CCCC2(C)C)cc1; > 100 µM
COc1ccc(C(=O)O/N=C2/CCC/C2=C\c2ccccc2)cc1; > 100 µM

Lab note: need TGI with SF-295 CNS for entry `Cc1sc2nc3n(c(=O)c2c1C)N=C(c1ccc([N+](=O)[O-])cc1)CS3` , please look it up.
> 100 µM

Lab note: need TGI with SF-295 CNS for entry `Nc1ccc(C(=O)N/C(=C\c2cccc([N+](=O)[O-])c2)c2nc3c4c(ccc3[nH]2)C(=O)c2ccccc2C4=O)cc1` , please look it up.
> 100 µM

Lab note: need TGI with SF-295 CNS for entry Cc1ccc(S(=O)OC23CC4CC(CC(C4)C2)C3)cc1 (stereo not given) , please look it up.
> 100 µM

Lab note: need TGI with SF-295 CNS for entry C#CCCCC(=O)N(C(=O)CS(=O)CC)c1ccccc1 (stereo not given) , please look it up.
> 100 µM

Lab note: need TGI with SF-295 CNS for entry `CC1=C(C(=O)Nc2ccccc2)C(c2ccc(C(C)C)cc2)C(C(=O)Nc2ccccc2)=C(C)N1` , please look it up.
> 100 µM

Lab note: need TGI with SF-295 CNS for entry `O=C1c2ccn(CCCCN3CCC(O)CC3)c2C(=O)c2c1c(O)c1ccccc1c2O` , please look it up.
9.69 µM

Origin of the recorded values: PubChem BioAssay (NCI)
